Reference source for all entries: PubChem BioAssay

# Assay Overview: VP16 transactivation inhibitors, counter-screen for SRC1 inhibitor project, cell-based, luminescence, high throughput (AID 588824)
# Assay Context: cell-based VP16 transactivation luciferase luminescence; at 3.6 µM; hits give high values
Recorded measurements of inhibition, one per entry

Molecule: Cc1cccc(NC(=O)CSCC(=O)N2CCCc3ccccc32)c1
inhibition / %: -4.48
--
Molecule: Cc1cc(C)c2nc(NNC(=O)c3ccc(S(=O)(=O)N4CCc5ccccc5C4)cc3)sc2c1
inhibition / %: 30
--
Molecule: CNC(=O)CCCN1C(=O)c2ccccc2Sc2ncccc21
inhibition / %: -3.21
--
Molecule: Cc1ccc2occ(/C=N/NC(=O)[C@@H](N)Cc3ccccc3)c(=O)c2c1
inhibition / %: 23.3
--
Molecule: O=c1c2ccccc2cnn1Cc1n[nH]c(=S)n1C1CC2CCC1C2 (stereo not drawn)
inhibition / %: -8.54
--
Molecule: C[C@H]1CN([C@@H](C)CO)C(=O)CCCn2nncc2CO[C@H]1CN(C)C(=O)C1CCCCC1
inhibition / %: -11.3
--
Molecule: O=C(NC(Nc1nc2ccc([N+](=O)[O-])cc2s1)(C(F)(F)F)C(F)(F)F)c1cccnc1
inhibition / %: 75.3
--
Molecule: O=C1N(c2ccccc2)C[C@@H]2C[C@@H](c3cc4ccccc4o3)N3CCC[C@@]123
inhibition / %: 94.7
--
Molecule: CCOC(=O)N=Nc1c2ccccc2c2nc3no[nH]c3nc12
inhibition / %: 92.4
--
Molecule: CCn1c(Oc2cccc(Br)c2)nc2c1c(=O)n(C)c(=O)n2C
inhibition / %: 12.3
--
Molecule: O=C(OCC(=O)N1CCN(S(=O)(=O)c2ccc(Cl)cc2)CC1)c1cccc(OC(F)F)c1
inhibition / %: -5.85
--
Molecule: Cc1ccc(-c2cc3cccc[n+]3cc2-c2ccc(C)cc2)cc1
inhibition / %: 64.4
--
Molecule: CCN(CC)c1ccc2nc3ccc(N)cc3[n+](-c3ccccc3)c2c1
inhibition / %: 81.5
--
Molecule: CN(C)/C=C/C(=O)c1ccn(S(=O)(=O)c2ccccc2)c1
inhibition / %: -2.37
--
Molecule: C=C1C(=O)O[C@H]2C[C@H]1[C@@H](OC(C)=O)C/C(C)=C/CC/C(C)=C\CC[C@]2(C)O
inhibition / %: 49.1
--
Molecule: Cc1cc(Sc2nnc(/N=C/N(C)C)s2)c2ccccc2n1
inhibition / %: 33.8
--
Molecule: CCN(c1ccc(OC)cc1)c1ncnc2nc[nH]c12
inhibition / %: 48.6
--
Molecule: Cc1ccccc1C(=O)N1CCN(c2ccc(NC(=O)c3ccc4c(c3)OCO4)cc2)CC1
inhibition / %: 72.9
--
Molecule: O=C(CSc1n[nH]c(-c2cccnc2)n1)Nc1ccc([N+](=O)[O-])cc1
inhibition / %: -8.24
--
Molecule: CC(C)N1C(=O)/C(=C\c2nc3ccccc3c(=O)n2-c2ccccc2)c2ccccc21
inhibition / %: 24.2
--
Molecule: COc1cccc(/C=N/NC(=O)c2cc(-c3cccn3C)n[nH]2)c1O
inhibition / %: 35.6
--
Molecule: CC(=O)NC(c1ccc(Cl)cc1Cl)c1ccc2cccnc2c1O (stereo not drawn)
inhibition / %: 70.6
--
Molecule: Cc1ccc(/C=C/c2ccc(N(C)C)cc2)[n+](C)c1
inhibition / %: 50.1
--
Molecule: N#Cc1c(N)nc2c(c1-c1ccc(F)cc1)CCC2
inhibition / %: -10.2
--
Molecule: CC(C)c1nc(NCCO)c(C#N)c2c1CCCC2
inhibition / %: 35.1
--
Molecule: CC1(C)CC(N2CCCC2)=CC(=[N+]2CCCC2)C1
inhibition / %: 23.9
--
Molecule: O=C(CCn1cnc(-c2ccccc2)c1-c1ccccc1)N/N=C/c1ccccc1O
inhibition / %: 11.4
--
Molecule: CCc1ccc(-c2nc(CSCC(=O)NCc3ccco3)c(C)o2)cc1
inhibition / %: 24.5
